Attribute: mass density
settings: 298.1 K; 101.33 kPa; Liquid; Vibrating tube method
Numeric only. Scale: kg/m3

• CCCCOS(=O)(=O)[O-].CC[n+]1ccn(C)c1 [3-ethyl-1-methylimidazolium butyl sulfate] = 1175.65

Entry CCOS(=O)(=O)[O-].CCn1cc[n+](C)c1 [1-ethyl-3-methylimidazolium ethyl sulfate] , mass density reported as 1238.3

Entry CCCCCCOS(=O)(=O)[O-].CC[n+]1ccn(C)c1 [3-ethyl-1-methyl-1H-imidazolium hexyl sulfate] , mass density reported as 1129.6

Entry CCCCCCCCOS(=O)(=O)[O-].CCn1cc[n+](C)c1 [1-ethyl-3-methylimidazolium octyl sulfate] , mass density reported as 1093.75

Values from the NIST ThermoML archive (doi:10.1016/j.jct.2012.01.023)
